Below, each of the compounds is paired with its reported Papp value.
Assay: clinical
Details: human
Please make sure the unit comes right after the number.

• CC1(C)S[C@@H]2[C@H](NC(=O)[C@H](N)c3ccc(O)cc3)C(=O)N2[C@H]1C(=O)O [AMOXICILLIN] = 30 ×10⁻⁶ cm/s
• NC(=O)N1c2ccccc2C=Cc2ccccc21 [CARBAMAZEPINE] = 430 ×10⁻⁶ cm/s
• NC(CO)C(=O)NNCc1ccc(O)c(O)c1O (centres undefined) [BENSERAZIDE] = 290 ×10⁻⁶ cm/s

Now take the following compound into account.
Which Papp value belongs to NC(N)=O [UREA] ? 140 ×10⁻⁶ cm/s
